molecular target: DYRK1B (Homo sapiens, UniProt Q9Y463); construct: full-length human kinases from Carna Biosciences; purchased Carna Biosciences 04-131; test: Kinase TR-FRET assay, DYRK1B; assay type: biochemical; conditions: full-length human kinase, 10 μM ATP
Sequence (Q9Y463 whole entry): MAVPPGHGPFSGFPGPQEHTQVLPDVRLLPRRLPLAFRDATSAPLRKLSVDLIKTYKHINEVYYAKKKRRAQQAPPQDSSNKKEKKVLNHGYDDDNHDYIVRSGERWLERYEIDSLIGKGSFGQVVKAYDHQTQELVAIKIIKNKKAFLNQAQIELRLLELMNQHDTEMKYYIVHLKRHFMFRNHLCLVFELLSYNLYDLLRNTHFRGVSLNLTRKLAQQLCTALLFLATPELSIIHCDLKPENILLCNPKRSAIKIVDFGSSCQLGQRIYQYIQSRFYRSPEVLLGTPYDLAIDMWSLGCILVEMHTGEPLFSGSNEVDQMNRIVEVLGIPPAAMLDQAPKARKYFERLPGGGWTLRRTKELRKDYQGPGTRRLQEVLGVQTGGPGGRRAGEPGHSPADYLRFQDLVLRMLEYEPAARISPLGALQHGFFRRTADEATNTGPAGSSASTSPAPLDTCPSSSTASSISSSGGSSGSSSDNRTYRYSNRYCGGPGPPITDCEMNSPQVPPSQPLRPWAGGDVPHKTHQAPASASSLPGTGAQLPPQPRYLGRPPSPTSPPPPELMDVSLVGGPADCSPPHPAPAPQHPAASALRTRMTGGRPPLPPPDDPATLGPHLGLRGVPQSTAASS
Outcome measure: IC50 (µM)
Express it in µM; write the number only.

Recorded IC50, per entry:
INSERT INTO measurements (compound, assay_system, outcome_measure, measurement_units, experimental_result) VALUES
  ('Cc1nc2ccc(-c3cc(N)nc(N)c3)nc2n1CCOc1cccc(Br)n1', 'DYRK1B (Homo sapiens, UniProt Q9Y463)', 'IC50', 'µM', 0.006),
  ('Cc1nc2ccc(-c3cc(N)nc(N)c3)nc2n1CC1CC1(Cl)Cl (stereo not shown)', 'DYRK1B (Homo sapiens, UniProt Q9Y463)', 'IC50', 'µM', 0.01);

-- ask Fill blank: measured IC50 of the compound `Cc1nc2ccc(-c3cc(N)nc(N)c3)nc2n1CC(C)C` is ____.
-- reply 0.002

-- ask Fill blank: measured IC50 of the compound COc1ccc2c(c1)CC(n1c(C)nc3ccc(-c4cc(N)nc(N)c4)nc31)C2 (stereo not shown) is ____.
-- reply 0.009

-- ask Fill blank: measured IC50 of the compound `C=CCn1c(C)nc2ccc(-c3cc(N)nc(N)c3)nc21` is ____.
-- reply 0.001

-- ask Fill blank: measured IC50 of the compound `Cc1nc2ccc(-c3cc(N)nc(N)c3)nc2n1CCc1cccs1` is ____.
-- reply 0.006

-- ask Fill blank: measured IC50 of the compound `Cc1nc2ccc(-c3cc(N)nc(N)c3)nc2n1CCOc1c(F)cccc1F` is ____.
-- reply 0.04

-- ask Fill blank: measured IC50 of the compound `CCc1nc2ccc(-c3cc(N)nc(N)c3)nc2n1C1CCCC1` is ____.
-- reply 0.016

-- ask Fill blank: measured IC50 of the compound `C=CCCn1c(C)nc2ccc(-c3cc(N)nc(N)c3)nc21` is ____.
-- reply 0.001

-- ask Fill blank: measured IC50 of the compound `Cc1nc2ccc(-c3cc(N)nc(N)c3)nc2n1CCOc1ccccc1` is ____.
-- reply 0.003

-- ask Fill blank: measured IC50 of the compound `COCCCn1c(C)nc2ccc(-c3cc(N)nc(N)c3)nc21` is ____.
-- reply 0.014

-- ask Fill blank: measured IC50 of the compound `Cc1nc2ccc(-c3cc(N)nc(N)c3)nc2n1Cc1ccccn1` is ____.
-- reply 0.149

-- ask Fill blank: measured IC50 of the compound `Cc1nc2ccc(-c3cc(N)nc(N)c3)nc2n1CCc1ccsc1` is ____.
-- reply 0.011

-- ask Fill blank: measured IC50 of the compound CCCC(C)n1c(C)nc2ccc(-c3cc(N)nc(N)c3)nc21 (stereo not shown) is ____.
-- reply 0.03
